// ELISA IgG binding at 1 uM IgG (unit not given) lookup, one value per entry
# target: T1, human NPR1 (Natriuretic Peptide Receptor 1), recombinant antigen (human, UniProt P16066 33-473)
# T1 construct: also called hNPR1; NPR1-hFc
# T1 sequence: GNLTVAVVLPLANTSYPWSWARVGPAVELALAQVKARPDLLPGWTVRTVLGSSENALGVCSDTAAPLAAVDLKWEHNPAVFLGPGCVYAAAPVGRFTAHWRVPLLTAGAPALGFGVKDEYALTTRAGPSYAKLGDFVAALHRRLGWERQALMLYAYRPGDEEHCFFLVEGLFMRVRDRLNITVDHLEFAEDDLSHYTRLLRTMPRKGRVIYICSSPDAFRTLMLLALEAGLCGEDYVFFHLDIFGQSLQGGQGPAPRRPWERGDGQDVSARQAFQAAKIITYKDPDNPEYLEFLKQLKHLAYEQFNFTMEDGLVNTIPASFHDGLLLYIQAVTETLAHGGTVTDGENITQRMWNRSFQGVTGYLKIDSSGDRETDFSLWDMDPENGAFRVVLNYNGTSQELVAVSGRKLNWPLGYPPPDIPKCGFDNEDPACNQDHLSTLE
# measurement_notes: ELISA, 1 uM IgG
Lab note: write the figure by itself, no unit.

{"columns": ["binder", "assay_result"],
 "data": [
  ["YY01 IgG (YY01_LALA) (antibody, V domains shown) VH: EVQLVESGGGLVQPGGSLRLSCAASGFTFSSYWISWVRQAPGKGLEWVANIKQSGSETYYVESVKGRFTISRDNAKNSLYLQMNSLRAEDTAVYYCARSLRRRSTEHAGFDVWGQGTLVTVSS VL: DIQMTQSPSSLSASVGDRVTITCRASQGISNYLAWYQQKPGKVPKLLIYAASTLQSGVPSRFSGSGSGTDFTLTISSLQPEDVATYYCQQADKFPYTFGQGTKVEIKR", 54],
  ["YY07 IgG (YY07_LALA) (antibody, V domains shown) VH: EVQLVQSGAEVKKPGESLKISCKGSGYSFTSYWISWVRQMPGKGLEWMGIIYPGTSYTRYSPSFQGQVTISADKSISTAYLQWSSLKASDTAMYYCARGSLPGLLGFDHWGQGTLVTVSS VL: QSVLTQPPSVSGAPGQRVTISCTGSSSNIGAGYDVHWYQQLPGTAPKLLIYGNSNRPNGVPDRFSGSKSGTSASLAITGLQAEDEADYYCQSYDSPTSSSVFGGGTKLTVLG", 68],
  ["YY06 IgG (YY06_LALA) (antibody, V domains shown) VH: EVQLLESGGGLVQPGGSLRLSCAASGFTFSSYAISWVRQAPGKGLEWVSAISGSGGSTYYAESVKGRFTISRDNSKNTLYLQMNSLRAEDTAVYYCARPYLGDRRSYGFDHWGQGTLVTVSS VL: QSALTQPASVSGSPGQSITISCTGTSSDVGSYNLVSWYQQHPGKAPKLMIYEGSKRPSGVSNRFSGSKSGNTASLTISGLQAEDEADYYCSSYGFHIVVVVFGGGTKLTVLG", 91]
]}

Request: Quick check: ELISA IgG binding at 1 uM IgG (unit not given) of YY05 IgG (YY05_LALA) (antibody, V domains shown) VH: EVQLVQSGAEVKKPGESLKISCKGSGYSFTSYWISWVRQMPGKGLEWMGIIYPGTSYTRYSPSFQGQVTISADKSISTAYLQWSSLKASDTAMYYCARGAVAGQLGFDHWGQGTLVTVSS VL: QSVLTQPPSVSGAPGQRVTISCTGSSSNIGAGYDVHWYQQLPGTAPKLLIYGNSNRPSGVPDRFSGSKSGTSASLAITGLQAEDEADYYCQSYYTSSHGPVFGGGTKLTVLG ?
Result: 81
